Molecular target: human NLRP3 (Homo sapiens (Human), UniProt Q96P20)
Sequence (Q96P20 whole entry): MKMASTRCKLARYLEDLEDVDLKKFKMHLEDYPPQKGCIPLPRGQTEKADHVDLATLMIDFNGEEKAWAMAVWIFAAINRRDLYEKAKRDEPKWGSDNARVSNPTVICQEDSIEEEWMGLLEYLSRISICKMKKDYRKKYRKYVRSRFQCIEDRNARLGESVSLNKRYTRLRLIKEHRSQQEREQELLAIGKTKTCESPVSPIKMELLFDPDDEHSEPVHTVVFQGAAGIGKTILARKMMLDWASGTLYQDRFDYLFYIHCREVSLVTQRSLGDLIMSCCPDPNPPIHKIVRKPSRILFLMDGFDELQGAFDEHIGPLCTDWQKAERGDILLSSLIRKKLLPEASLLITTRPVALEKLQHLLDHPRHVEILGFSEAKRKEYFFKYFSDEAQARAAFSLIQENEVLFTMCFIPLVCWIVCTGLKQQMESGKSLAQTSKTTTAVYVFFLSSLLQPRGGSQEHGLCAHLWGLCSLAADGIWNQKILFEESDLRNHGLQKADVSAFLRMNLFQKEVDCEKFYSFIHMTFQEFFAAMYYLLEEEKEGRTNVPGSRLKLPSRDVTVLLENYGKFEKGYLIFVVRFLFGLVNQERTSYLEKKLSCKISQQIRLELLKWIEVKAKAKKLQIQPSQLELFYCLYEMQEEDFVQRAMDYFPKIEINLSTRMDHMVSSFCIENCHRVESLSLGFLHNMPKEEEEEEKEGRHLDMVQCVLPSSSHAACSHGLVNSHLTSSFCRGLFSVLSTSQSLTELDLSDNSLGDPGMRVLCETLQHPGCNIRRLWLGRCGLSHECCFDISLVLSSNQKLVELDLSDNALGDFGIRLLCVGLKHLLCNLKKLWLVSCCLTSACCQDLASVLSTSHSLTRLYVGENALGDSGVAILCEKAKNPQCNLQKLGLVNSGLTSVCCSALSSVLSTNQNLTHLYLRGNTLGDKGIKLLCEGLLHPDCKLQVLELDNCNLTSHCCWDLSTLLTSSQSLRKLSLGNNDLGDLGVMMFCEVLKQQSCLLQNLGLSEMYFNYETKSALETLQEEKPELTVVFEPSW
Assay: Scintillation Proximity (SPA) NLRP3 Assay: displacement of 3H-MCC950
Format: binding
Details: displacement of 3H-MCC950; read-out: SPA IC50
# IC50 annotations

Check out these entries, answers already filled in.
Input: For the compound C[C@@H]1CCN(c2nnn[nH]2)C[C@@H](NC(=O)C2(c3ccc(OC(F)(F)F)cc3F)CC2)C1 (single isomer, unassigned) [64B*] , what IC50 is on record?
Output: 10 to 50 µM

Input: Could you do the same for C[C@@H]1CCN(c2nnn[nH]2)C[C@H](NC(=O)C2(c3ccc(Cl)cc3)CC2)C1 (single isomer, unassigned) [12A*] , please?
Output: < 1 µM

Input: Could you do the same for Cc1ccc(C2(C(=O)N[C@H]3C[C@@H](C)CCN(c4nnn[nH]4)C3)CC2)cc1 (single isomer, unassigned) [71D*] , please?
Output: 10 to 50 µM

Input: Could you do the same for Cc1ccc(C2(C(=O)N[C@@H]3C[C@@H](C)CCN(c4nnn[nH]4)C3)CC2)c(O)c1F (single isomer, unassigned) [74C*] , please?
Output: 10 to 50 µM

Input: Could you do the same for C[C@@H]1CCN(c2nnn[nH]2)C[C@@H](NC(=O)C2(c3ccc(Cl)cc3O)CC2)C1 (single isomer, unassigned) [60B*] , please?
Output: < 1 µM

---
Input: For the compound O=C(N[C@@H]1CCCN(c2nnn[nH]2)C1)C1(c2ccc(Cl)cc2O)CC1 [Compound 15A] , what IC50 is on record?
Output: 1 to 10 µM

Input: Could you do the same for C[C@@H]1C[C@@H](NC(=O)C2(c3ccc(Cl)cc3)CC2)[C@H]2CC[C@@H]1N2c1nnn[nH]1 [80A*] , please?
Output: < 1 µM
